Data provenance is ChEMBL document CHEMBL1759969.

Molecular target: Melatonin receptor type 1A (Homo sapiens)
Sequence (P48039 whole entry): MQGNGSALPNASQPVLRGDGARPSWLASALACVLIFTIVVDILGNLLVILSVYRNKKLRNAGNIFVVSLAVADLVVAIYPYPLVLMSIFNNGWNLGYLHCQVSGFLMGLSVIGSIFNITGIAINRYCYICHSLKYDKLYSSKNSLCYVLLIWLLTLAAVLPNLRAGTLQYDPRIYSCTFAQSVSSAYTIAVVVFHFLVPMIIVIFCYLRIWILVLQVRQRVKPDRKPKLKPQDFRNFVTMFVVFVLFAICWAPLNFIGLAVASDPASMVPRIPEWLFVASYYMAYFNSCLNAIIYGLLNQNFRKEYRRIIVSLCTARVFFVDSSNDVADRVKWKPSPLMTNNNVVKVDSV
Parameter: pKi
For clarity, pKi is expressed as the negative log10 of concentration in mol/L.

Task: Write down the reported pKi (system: Melatonin receptor type 1A (Homo sapiens)) of `CNCc1cn(CCNC(C)=O)c2nc(OC)ccc12`
Output: 5.08

Task: Write down the reported pKi (system: Melatonin receptor type 1A (Homo sapiens)) of `CCC(=O)NCCn1ccc2ccc(OC)nc21`
Output: 8.48

Task: Write down the reported pKi (system: Melatonin receptor type 1A (Homo sapiens)) of `COc1ccc2[nH]cc(CCNC(C)=O)c2n1`
Output: 9.70

Task: Write down the reported pKi (system: Melatonin receptor type 1A (Homo sapiens)) of `COc1ccc2c(CN(C)Cc3ccccc3)cn(CCNC(C)=O)c2n1`
Output: 4.98

Task: Write down the reported pKi (system: Melatonin receptor type 1A (Homo sapiens)) of `COc1ccc2ccn(CCNC(C)=O)c2n1`
Output: 8.85

* * *

Target: Melatonin receptor type 1A (Homo sapiens)
Assay: Agonist activity at human MT1 receptor expressed in CHO cells by [35S]GTPgamma binding assay
Parameter: pEC50
For clarity, pEC50 is expressed as the negative log10 of concentration in mol/L.

Task: Given the compound `COc1ccc2c(I)cn(CCNC(C)=O)c2n1` , write its reported pEC50.
Output: 7.49

Task: Given the compound `COc1ccc2c3c(n(CCNC(C)=O)c2n1)CCCC3` , write its reported pEC50.
Output: 7.80

Task: Given the compound `CCC(=O)NCCn1ccc2ccc(OC)nc21` , write its reported pEC50.
Output: 8.29

Task: Given the compound `COc1ccc2c(C(=O)C(F)(F)F)cn(CCNC(C)=O)c2n1` , write its reported pEC50.
Output: 7.03

Task: Given the compound `COc1ccc2[nH]cc(CCNC(C)=O)c2n1` , write its reported pEC50.
Output: 7.92

Task: Given the compound `COc1ccc2ccn(CCNC(C)=O)c2n1` , write its reported pEC50.
Output: 8.40

* * *

Organism: Homo sapiens
Experiment: Selectivity ratio of Ki for human MT1 receptor to Ki for human MT2 receptor
Parameter: Ratio Ki
Keep the answer to the number alone.

Task: Given the compound `CNCc1cn(CCNC(C)=O)c2nc(OC)ccc12` , write its reported Ratio Ki.
Output: 7.6

Task: Given the compound `COc1ccc2c(CN3CCCCC3)cn(CCNC(C)=O)c2n1` , write its reported Ratio Ki.
Output: 0.7

Task: Given the compound `COc1ccc2c(C(=O)C(F)(F)F)cn(CCNC(C)=O)c2n1` , write its reported Ratio Ki.
Output: 3

Task: Given the compound `COc1ccc2[nH]cc(CCNC(C)=O)c2n1` , write its reported Ratio Ki.
Output: 0.7

Task: Given the compound `COc1ccc2c(CN(C)Cc3ccccc3)cn(CCNC(C)=O)c2n1` , write its reported Ratio Ki.
Output: 2.6

Task: Given the compound `COc1ccc2c(CN3CCN(c4cccc(Cl)c4)CC3)cn(CCNC(C)=O)c2n1` , write its reported Ratio Ki.
Output: 1.3

Task: Given the compound `COc1ccc2ccn(CCNC(C)=O)c2n1` , write its reported Ratio Ki.
Output: 2.3

Task: Given the compound `CCC(=O)NCCn1ccc2ccc(OC)nc21` , write its reported Ratio Ki.
Output: 11.8

Task: Given the compound `COc1ccc2c3c(n(CCNC(C)=O)c2n1)CCCC3` , write its reported Ratio Ki.
Output: 13.2

Task: Given the compound `COc1ccc2c(I)cn(CCNC(C)=O)c2n1` , write its reported Ratio Ki.
Output: 3.2

Task: Given the compound `COc1ccc2c(CN3CCC(C(=O)c4ccc(F)cc4)CC3)cn(CCNC(C)=O)c2n1` , write its reported Ratio Ki.
Output: 1.3
